Exercise: state measured MIC for each of the molecules provided.
Test system: Staphylococcus aureus (ATCC 29213)
testProtocol: Broth dilution MIC against S. aureus
Format: cell-based
cond: Staphylococcus aureus, ATCC29213, 24 h, ATCC 29213; broth two-fold dilution, 37 °C, 24 h; read-out: Antimicrobial minimal inhibition concentration (MIC), S. aureus
Form entry: value (µg/mL) — number only.

Data request: Find the recorded MIC belonging to c1cc2c(cc1[C@H]1OC[C@H]3[C@@H]1CO[C@@H]3c1ccc3c(c1)OCO3)OCO2 [sesamin (3), sesamin] and report it.
Data returned: 500

Data request: Find the recorded MIC belonging to COc1ccc2c(c1)c1ccnc3ccc(=O)n2c31 [10-methoxycanthin-6-one (6), 10-methoxycanthin-6-one] and report it.
Data returned: 1.95

Data request: Find the recorded MIC belonging to COc1ccc2c(c1OC)C(CC(C)=O)N(C)c1c-2ccc2cc3c(cc12)OCO3 (centres unmarked) [8-acetonyldihydrochelerythrine (4), 8-acetonyldihydrochelerythrine] and report it.
Data returned: 15.6

Data request: Find the recorded MIC belonging to O=c1ccc2nccc3c4ccccc4n1c23 [canthin-6-one (7), canthin-6-one] and report it.
Data returned: 0.48

These measurements were taken from paper PMC7412065.
